test system: HepG2; assay: cytotoxicity call (relative viability < 0.9); conditions: 10 µM
In all, about 39,000 compounds went through this assay and about 3,300 (8.5%) were called active. Only a selection was taken, and actives are over-represented in it overall.
Possible outcomes: active, inactive

1) C[C@@H]1CCCCO[C@@H](CN(C)Cc2ccc(C(F)(F)F)cc2)[C@@H](C)CN([C@H](C)CO)C(=O)c2cc(NS(=O)(=O)c3cccs3)ccc2O1 | active
2) C[C@H](CO)N1C[C@H](C)[C@H](CN(C)Cc2ccc(C(F)(F)F)cc2)OCCCC[C@H](C)Oc2ccc(NS(=O)(=O)c3cccs3)cc2C1=O | active
3) C[C@H](CO)N1C[C@H](C)[C@@H](CN(C)C(=O)c2cccc(F)c2)Oc2cc(C#CC3CC3)ccc2S1(=O)=O | inactive
4) C[C@H](CO)N1C[C@H](C)[C@@H](CN(C)Cc2ccc(C(F)(F)F)cc2)OCCCC[C@H](C)Oc2ccc(NS(=O)(=O)c3cccs3)cc2C1=O | inactive
5) C[C@H](CO)N1C[C@H](C)[C@H](CN(C)Cc2ccc(C(F)(F)F)cc2)Oc2c(NS(C)(=O)=O)cccc2C1=O | inactive
6) C[C@@H]1CN([C@H](C)CO)C(=O)Cc2cc(NC(=O)Cc3ccccc3)ccc2O[C@@H]1CN(C)S(=O)(=O)c1ccccc1 | inactive
7) COc1ncc(NC(=O)C2CC2)c(OC)n1 | inactive
8) NC(=O)c1cccnc1N1CCN(C(=O)[C@@H]2CC(=O)N(C3CC3)C2)CC1 | inactive

* * *

system: HepG2; assay: cytotoxicity call (relative viability < 0.9); details: 10 µM
In all, about 39,000 compounds went through this assay and about 3,300 (8.5%) were called active. Shown is part of a subset that was picked to be rich in actives.
Possible outcomes: 1 (yes) for active, 0 (no) for inactive

1) COc1ccc(S(=O)(=O)Nc2ccc3c(c2)C(=O)N([C@@H](C)CO)C[C@@H](C)[C@H](CN(C)C(=O)Nc2ccc(C(F)(F)F)cc2)OCCCC[C@H](C)O3)cc1 | 0 (no)
2) C[C@H]1CN([C@@H](C)CO)C(=O)Cc2cc(NC(=O)C3CC3)ccc2O[C@H]1CN(C)S(=O)(=O)c1ccc(Cl)cc1 | 1 (yes)
3) COc1ccc(S(=O)(=O)Nc2ccc3c(c2)C(=O)N([C@H](C)CO)C[C@H](C)[C@H](CN(C)C(=O)Nc2ccc(C(F)(F)F)cc2)OCCCC[C@@H](C)O3)cc1 | 0 (no)
4) C[C@@H]1CN([C@H](C)CO)C(=O)c2cc(NS(=O)(=O)c3ccccc3)ccc2O[C@@H](C)CCCCO[C@@H]1CN(C)C(=O)C1CCCCC1 | 0 (no)
5) C[C@H](CO)N1C[C@H](C)[C@H](CN(C)S(=O)(=O)c2ccc(Cl)cc2)Oc2ccc(NC(=O)C3CC3)cc2CC1=O | 0 (no)
6) C[C@H]1CN([C@@H](C)CO)C(=O)Cc2cc(NC(=O)NC3CCCCC3)ccc2O[C@H]1CN(C)S(C)(=O)=O | 0 (no)
7) C[C@H]1CN([C@@H](C)CO)C(=O)Cc2cc(NC(=O)Cc3cn(C)c4ccccc34)ccc2O[C@@H]1CN(C)Cc1ccc(C(F)(F)F)cc1 | 1 (yes)
8) Clc1ccc(-c2onc3cc(-c4ccccc4)ccc23)cc1 | 1 (yes)
9) C[C@H](CO)N1C[C@H](C)[C@H](CN(C)C(=O)Nc2ccc(C(F)(F)F)cc2)Oc2ccc(NC(=O)Cc3cn(C)c4ccccc34)cc2CC1=O | 0 (no)
10) C[C@H]1CN([C@@H](C)CO)C(=O)Cc2cc(NC(=O)Cc3cn(C)c4ccccc34)ccc2O[C@@H]1CN(C)C(=O)Nc1ccc(C(F)(F)F)cc1 | 0 (no)
11) C[C@@H]1CN([C@@H](C)CO)C(=O)Cc2cc(NC(=O)Cc3cn(C)c4ccccc34)ccc2O[C@H]1CN(C)Cc1ccc(C(F)(F)F)cc1 | 1 (yes)
12) C[C@H](CO)N1C[C@H](C)[C@@H](CN(C)C(=O)Nc2ccc(C(F)(F)F)cc2)Oc2ccc(NC(=O)Cc3cn(C)c4ccccc34)cc2CC1=O | 0 (no)
13) C[C@H](CO)N1C[C@H](C)[C@@H](CN(C)S(C)(=O)=O)Oc2ccc(NC(=O)NC3CCCCC3)cc2CC1=O | 0 (no)
14) C[C@H]1CN([C@@H](C)CO)C(=O)Cc2cc(NC(=O)Cc3cn(C)c4ccccc34)ccc2O[C@H]1CN(C)C(=O)Nc1ccc(C(F)(F)F)cc1 | 0 (no)
15) C#CCN1C(=O)N(C(=O)c2ccccc2)[C@@H]2c3ccccc3O[C@@]1(COCc1ccc(OC)cc1)[C@@H]2CO[Si](C)(C)C(C)(C)C | 0 (no)
16) C[C@@H]1CN([C@H](C)CO)C(=O)Cc2cc(NC(=O)C3CC3)ccc2O[C@@H]1CN(C)S(=O)(=O)c1ccc(Cl)cc1 | 0 (no)
17) C[C@H]1CN([C@@H](C)CO)C(=O)c2cc(NC(=O)C3CC3)ccc2O[C@H]1CN(C)S(=O)(=O)c1cccs1 | 0 (no)
18) C[C@@H]1CN([C@@H](C)CO)C(=O)Cc2cc(NC(=O)NC3CCCCC3)ccc2O[C@H]1CN(C)S(C)(=O)=O | 1 (yes)
19) COc1ccc(S(=O)(=O)Nc2ccc3c(c2)C(=O)N([C@H](C)CO)C[C@@H](C)[C@H](CN(C)C(=O)Nc2ccc(C(F)(F)F)cc2)OCCCC[C@@H](C)O3)cc1 | 0 (no)
20) Clc1ccc2nc(Cl)cc(-c3ccccc3)c2c1 | 0 (no)
21) C[C@@H]1CN([C@H](C)CO)C(=O)Cc2cc(NC(=O)NC3CCCCC3)ccc2O[C@@H]1CN(C)S(C)(=O)=O | 1 (yes)
22) CN(C)CC(=O)N[C@H]1CC[C@@H](CC(=O)NCCN2CCCCC2)O[C@@H]1CO | 0 (no)
23) C[C@H](CO)N1C[C@H](C)[C@H](CN(C)S(C)(=O)=O)Oc2ccc(NC(=O)NC3CCCCC3)cc2CC1=O | 0 (no)
24) C[C@H](CO)N1C[C@H](C)[C@@H](CN(C)Cc2ccc(C(=O)O)cc2)Oc2c(NC(=O)C3CCOCC3)cccc2C1=O | 0 (no)
25) C[C@@H]1CN([C@@H](C)CO)C(=O)Cc2cc(NC(=O)Cc3cn(C)c4ccccc34)ccc2O[C@@H]1CN(C)C(=O)Nc1ccc(C(F)(F)F)cc1 | 0 (no)
26) Clc1ccc(-c2cnc3ccc(-c4ccccc4)cn23)cc1 | 0 (no)
27) COc1ccc(S(=O)(=O)N(C)C[C@@H]2Oc3ccc(NS(=O)(=O)c4cn(C)cn4)cc3CC(=O)N([C@@H](C)CO)C[C@@H]2C)cc1 | 0 (no)
28) C[C@@H]1CN([C@H](C)CO)C(=O)c2cccc(NS(=O)(=O)c3cn(C)cn3)c2O[C@@H]1CN(C)C(=O)Nc1ccc(F)cc1 | 0 (no)

* * *

test system: HepG2; assay: cytotoxicity call (relative viability < 0.9); conditions: 10 µM
Out of some 39,000 compounds screened, about 3,300 (8.5%) were called active. This excerpt belongs to a sample that is enriched for actives.
Possible outcomes: class 1 (active), class 0 (inactive)

1) O=C(/C=C/c1ccccc1)C1CC1 | class 0
2) O=C(C=Cc1ccc(O)cc1)c1ccccc1 | class 1
3) O=c1cc[nH]c(C(F)(F)F)n1 | class 0
4) C[C@@H]1CCCCO[C@@H](CN(C)Cc2ccc(C(=O)O)cc2)[C@H](C)CN([C@H](C)CO)C(=O)c2cc(NS(=O)(=O)c3cccs3)ccc2O1 | class 0
5) CN(Cn1[nH]c(=O)ccc1=O)c1ccccc1 | class 0
6) C[C@@H]1CCCCO[C@@H](CN(C)Cc2ccc(C(F)(F)F)cc2)[C@@H](C)CN([C@@H](C)CO)C(=O)c2cc(NS(=O)(=O)c3cccs3)ccc2O1 | class 1
7) O=C(C=Cc1ccc(O)cc1)c1ccccc1O | class 0
8) C[C@@H]1CCCCO[C@H](CN(C)Cc2ccc(C(F)(F)F)cc2)[C@H](C)CN([C@@H](C)CO)C(=O)c2cc(NS(=O)(=O)c3cccs3)ccc2O1 | class 1
9) C[C@@H]1CN([C@H](C)CO)C(=O)c2cc(NS(=O)(=O)c3cccs3)ccc2O[C@@H](C)CCCCO[C@@H]1CN(C)Cc1ccc(C(=O)O)cc1 | class 0
10) C[C@@H]1CCCCO[C@H](CN(C)C(=O)Cc2ccccc2)[C@@H](C)CN([C@H](C)CO)C(=O)c2cc(NS(=O)(=O)c3ccc(F)cc3)ccc2O1 | class 0
11) Cc1noc(C)c1NC(=O)N(C)C[C@H]1Oc2ncc(C#CCC(C)C)cc2C(=O)N([C@@H](C)CO)C[C@H]1C | class 0
12) CC(C)c1ccc(/C=C/C(=O)O)cc1 | class 0
13) C[C@H]1CCCCO[C@H](CN(C)Cc2ccc(C(F)(F)F)cc2)[C@@H](C)CN([C@@H](C)CO)C(=O)c2cc(NS(=O)(=O)c3cccs3)ccc2O1 | class 0
14) C[C@@H]1CN([C@@H](C)CO)C(=O)c2cc(NS(=O)(=O)c3cccs3)ccc2O[C@@H](C)CCCCO[C@@H]1CN(C)Cc1ccc(C(F)(F)F)cc1 | class 0
15) C[C@@H]1CCCCO[C@@H](CN(C)Cc2ccc(C(F)(F)F)cc2)[C@H](C)CN([C@H](C)CO)C(=O)c2cc(NS(=O)(=O)c3cccs3)ccc2O1 | class 1
16) C[C@@H]1CN([C@H](C)CO)C(=O)c2cc(N(C)C)ccc2O[C@@H](C)CCCCO[C@@H]1CN(C)S(C)(=O)=O | class 0
